Exercise: state measured pIC50 for each of the compounds provided.
Test system: M. tuberculosis H37Rv growth inhibition with meropenem
Experiment: dose response, H37Rv, with and without meropenem (AID 434987);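 also: growth over 7 days at 37 °C before Alamar Blue read on day 9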
Settings: M. tuberculosis H37Rv growth inhibition; measured here: IC50 without meropenem
pIC50: −log10 of the molar value.

Which pIC50 value is on record for NS(=O)(=O)c1cccnc1Nc1c(Cl)cccc1Cl ?
< 4.00

Item under review: CN(C)CC[C@@H](c1ccc(Br)cc1)c1ccccn1 . Reported pIC50?
< 4.00

What value of pIC50 has been reported for the following compound? COC(=O)C1=C(C)NC(=O)/C1=C\c1cc(C)n(-c2c(C)cccc2C)c1C
< 4.00

Data provenance is PubChem BioAssay AID434987.
